Where do the numbers come from? From patent US7288567B2.

biological target: recombinant human HDAC-1 enzyme (rHDAC-1) (Homo sapiens); construct: made in house; host or cells: Baculovirus insect cell expression system; experiment: Histone deacetylase inhibition, recombinant human HDAC-1; assay type: biochemical; conditions: cloned recombinant human HDAC-1, Baculovirus insect cell expression; read-out: rHDAC-1 IC50
pIC50: −log10 of the molar value.
observable: pIC50

compound	pIC50
CN(CCCCCC(=O)Nc1ccccc1N)Cc1ccc2ccccc2c1 [Compound 210]	5.00
COC(C/C=C/C=C/C(=O)NO)c1ccc(N(C)C)cc1 (stereo not drawn) [Compound 17]	6.60
O=C(CCCCCCC(=O)c1ccc2ccccc2c1)Nc1ccccc1O [Compound 66]	5.64
O=C(CCCCCCC(=O)c1ccoc1)NO [Compound 52j, N-hydroxy-7-(3-furanoyl)heptanamide]	6.35

[P] O=C(CCCCCCC(=O)c1cccc2ccccc12)NO [Compound 52f, N-hydroxy-7-(1-naphthoyl)heptanamide]
[Q] O=C(CCCCCCC(=O)c1ccc(N2CCNCC2)cc1)NO [Compound 138c2]
Identify the entry with the smaller pIC50: P or Q . Output the label that corresponds to your choice.
Q

[1] O=C(CCCCCCC(=O)c1ccccc1)Nc1ccccc1O [Compound 86]
[2] Nc1ccccc1CNC(=O)CCCCCCC(=O)c1ccc(-c2ccccc2)cc1 [Compound 75]
[3] CN(CCCCC(=O)NO)CCc1ccc2ccccc2c1 [Compound 216]
[4] O=C(CS)CCCCCCC(=O)c1cc2ccccc2s1 [Compound 163]
[5] CC(=O)SCC(=O)CCCCCCC(=O)c1cc2ccccc2s1 [Compound 162]
Sort (5 compounds) by pIC50: min first. Response field: labels, in requested order.
2, 1, 3, 5, 4
(2: 5.08, 1: 5.30, 3: 6.52, 5: 7.46, 4: 8.00)

[a] CSCC(=O)CCCCCCC(=O)c1ccccc1 [Compound 159b, 1-Methylthio-2,9-dioxo-9-phenyl-nonane]
[b] Nc1ccccc1NC(=O)CCCCCCC(=O)c1cccc(-c2ccccc2)c1 [Compound 132]
// max by pIC50 over [ a , b ] Output the label that corresponds to your choice.
a

* * *

target: recombinant human HDAC-1 enzyme (rHDAC-1) (Homo sapiens, UniProt Q13547); construct: made in house; host or cells: Baculovirus insect cell expression system; experiment: Histone deacetylase inhibition, recombinant human HDAC-1; format: biochemical; settings: cloned recombinant human HDAC-1, Baculovirus insect cell expression; read-out: rHDAC-1 IC50
Sequence (Q13547 whole entry): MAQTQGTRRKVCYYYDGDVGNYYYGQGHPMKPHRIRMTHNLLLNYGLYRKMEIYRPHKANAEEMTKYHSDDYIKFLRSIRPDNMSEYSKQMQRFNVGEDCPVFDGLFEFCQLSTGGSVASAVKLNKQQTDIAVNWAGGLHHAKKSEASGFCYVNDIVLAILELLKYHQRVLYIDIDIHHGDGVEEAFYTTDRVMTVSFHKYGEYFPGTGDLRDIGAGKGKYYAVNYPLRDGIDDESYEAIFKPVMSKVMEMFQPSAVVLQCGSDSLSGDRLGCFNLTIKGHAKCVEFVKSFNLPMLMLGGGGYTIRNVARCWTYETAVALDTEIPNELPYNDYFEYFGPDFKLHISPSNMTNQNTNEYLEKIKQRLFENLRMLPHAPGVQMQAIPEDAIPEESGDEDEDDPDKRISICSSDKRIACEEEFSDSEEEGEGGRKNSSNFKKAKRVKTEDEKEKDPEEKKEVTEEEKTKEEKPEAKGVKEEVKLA
observable: IC50 (nM)

Worked cases, IC50 given:
compound	measuredOn	IC50, nM
O=C(CCCCCCC(=O)c1ccc(NCc2cccnc2)cc1)NO [Compound 138f]	recombinant human HDAC-1 enzyme (rHDAC-1) (Homo sapiens, UniProt Q13547)	20
COC(c1ccc(N(C)C)cc1)C(C)/C=C(C)/C=C/C(=O)Nc1ccccc1N (centres unmarked)	recombinant human HDAC-1 enzyme (rHDAC-1) (Homo sapiens, UniProt Q13547)	7000
O=C(CCCCSCC(=O)c1ccc(-c2ccccc2)cc1)NO [Compound 226b]	recombinant human HDAC-1 enzyme (rHDAC-1) (Homo sapiens, UniProt Q13547)	6
Nc1ccccc1NC(=O)CCCCCN1C(=O)c2cc(O)c(CN3CCCCC3)cc2C1=O [Compound 243h]	recombinant human HDAC-1 enzyme (rHDAC-1) (Homo sapiens, UniProt Q13547)	3000
CON=C(CCCCCCC(=O)Nc1ccccc1N)c1cccc(-c2ccccc2)c1 (mixture of isomers)	recombinant human HDAC-1 enzyme (rHDAC-1) (Homo sapiens, UniProt Q13547)	2000

[1] O=C(CCCCCn1cnc2ccccc2c1=O)NO [Compound 238a]
[2] Nc1ccccc1NC(=O)CCCCCCC(=O)c1ccc(-c2ccsc2)cc1
// max by IC50 over [ 1 , 2 ] Output the label that corresponds to your choice.
2

[I] O=C(CCCCCCC(=O)c1ccco1)NO [Compound 52i, N-hydroxy-7-(2-furanoyl)-heptanamide]
[II] O=C(CS)CCCCCCC(=O)c1ccccc1 [Compound 159e, 1-Mercapto-2,9-dioxo-9-phenyl-nonane]
[III] CC(CCCCC(=O)c1ccc2ccccc2c1)CC(=O)NO (centres unmarked)
Order the records so the highest IC50 appears first and the lowest last. Response field: labels, in requested order.
I, II, III

[A] CC(C)(C)OC(=O)N(CCCCCC(=O)Nc1ccccc1N)Cc1ccc2ccccc2c1
[B] O=C(CCCCCCC(=O)c1ccc(-c2ccccc2)cc1)Nc1n[nH]c(=S)s1
// max by IC50 over [ A , B ] Output the label that corresponds to your choice.
B

[A] Nc1ccccc1NC(=O)CCCCSCC(=O)c1ccc(-c2ccccc2)cc1 [Compound 227b]
[B] O=C(CCCCCN(Cc1ccc2ccccc2c1)C(=O)OCc1ccccc1)NO [Compound 220a]
[C] O=C(CCCCCCC(=O)c1cnc2ccccc2c1)NO [Compound 141b]
[D] Nc1ccccc1NC(=O)CCCCCN1C(=O)c2ccc([N+](=O)[O-])cc2C1=O [Compound 243e]
Order the records so the highest IC50 appears first and the lowest last. Response field: labels, in requested order.
D, A, C, B

[I] COC(C/C=C/C=C/C(=O)Nc1ccccc1N)c1ccc(N(C)C)cc1 (centres unmarked)
[II] O=C(CS)CCCCCC(=O)c1cc2ccccc2s1
// max by IC50 over [ I , II ] Output the label that corresponds to your choice.
I
(I: 3000 nM, II: 71 nM)

[1] Cc1ccc2c(c1)C(=O)N(CCCCCC(=O)Nc1ccccc1N)C2=O [Compound 243d]
[2] O=C(CCCCCC(=O)c1ccc(-c2ccccc2)cc1)Nc1n[nH]c(=S)s1
[3] COc1ccc(C(C/C=C/C=C/C(=O)NO)OC)cc1 (centres unmarked)
Order the records so the highest IC50 appears first and the lowest last. Response field: labels, in requested order.
2, 1, 3
(2: 19000 nM, 1: 3000 nM, 3: 250 nM)

[1] O=C(CCCCCCC(=O)c1cccc(-c2ccccc2)c1)NO
[2] Nc1ccccc1NC(=O)/C=C/C=C/CCC(=O)c1ccc(-c2ccccc2)cc1
[3] Nc1ccccc1NC(=O)CCCCCN1C(=O)c2ccc(O)cc2C1=O [Compound 243g]
[4] O=C(CCCCCCC(=NO)c1ccco1)NO [Compound 51i]
[5] Nc1ccccc1NC(=O)CCCCCCC(=O)c1ccc(-c2cccnc2)cc1
Order the records so the highest IC50 appears first and the lowest last. Response field: labels, in requested order.
5, 2, 3, 4, 1

[I] O=C(CCCCCCC(=O)c1ccc(N2CCN(c3ccccc3)CC2)cc1)NO [Compound 138g]
[II] Nc1ccccc1NC(=O)CCCCCCC(=O)c1ccccc1 [Compound 53a, N-(2-Aminophenyl)-7-benzoylheptanamide]
Identify the entry with the smaller IC50: I or II . Output the label that corresponds to your choice.
I
(I: 6 nM, II: 600 nM)
